target: STAT 6 (Mus musculus, UniProt P52633); construct: An STAT 6 reporter cell CI/FW4 was constructed by the above operation; endogenous in cells; host or cells: CI/FW4 (FW4 cell stably carrying the pGL2-CI/bs luciferase reporter); test: STAT 6-dependent reporter activity (IL-4-stimulated CI/FW4 luciferase reporter cell); format: cell-based, human; conditions: inhibition ratio at 1 μM compound; IL-4-stimulated CI/FW4 cell, luciferase
Sequence (P52633 whole entry): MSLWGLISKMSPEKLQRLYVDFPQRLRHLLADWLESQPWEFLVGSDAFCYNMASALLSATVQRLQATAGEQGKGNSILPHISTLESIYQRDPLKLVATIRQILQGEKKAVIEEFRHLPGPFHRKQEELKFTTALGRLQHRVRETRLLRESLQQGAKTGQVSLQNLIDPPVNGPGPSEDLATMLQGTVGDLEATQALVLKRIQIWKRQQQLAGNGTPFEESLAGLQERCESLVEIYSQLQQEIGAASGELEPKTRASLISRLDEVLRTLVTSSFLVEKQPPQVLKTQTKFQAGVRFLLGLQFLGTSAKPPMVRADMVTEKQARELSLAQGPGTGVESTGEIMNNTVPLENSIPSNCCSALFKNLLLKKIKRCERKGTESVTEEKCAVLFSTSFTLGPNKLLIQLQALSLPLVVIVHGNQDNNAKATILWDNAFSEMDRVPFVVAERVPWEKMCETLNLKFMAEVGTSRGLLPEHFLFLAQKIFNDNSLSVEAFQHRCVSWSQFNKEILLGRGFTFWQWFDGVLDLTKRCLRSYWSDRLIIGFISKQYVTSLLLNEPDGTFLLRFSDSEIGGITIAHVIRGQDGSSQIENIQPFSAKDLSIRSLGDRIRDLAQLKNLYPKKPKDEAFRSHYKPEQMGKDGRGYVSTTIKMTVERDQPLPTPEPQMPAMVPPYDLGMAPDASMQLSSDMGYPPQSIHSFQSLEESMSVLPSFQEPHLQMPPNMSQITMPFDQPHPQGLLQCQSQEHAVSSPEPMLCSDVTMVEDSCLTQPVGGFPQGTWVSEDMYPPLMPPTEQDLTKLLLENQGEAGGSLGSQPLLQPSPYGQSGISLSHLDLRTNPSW
Counter-ions that a name gives are not always drawn.
endpoint: inhibition at 1 µM (%)

> print(dat)
                                   compound                        measured.target  reading
1  CNC(=O)c1cnc(NCCc2cc(Cl)c(O)c(Cl)c2)nc1Nc1cccc(C)c1 [Example 2]  STAT 6 (Mus musculus, UniProt P52633)       96
2  Cc1cccc(Nc2nc(NCCc3ccc(O)c(Br)c3)ncc2C(N)=O)c1 [Production Example 1]  STAT 6 (Mus musculus, UniProt P52633)      100
3  Cc1cccc(Nc2nc(Nc3ccc(CN(C)C)cc3)ncc2C(N)=O)c1 [Production Example 9, dihydrochloride]  STAT 6 (Mus musculus, UniProt P52633)       91
4  NC(=O)c1cnc(Nc2ccc(N3CCOCC3)cc2)nc1NC1CCCCC1 [Production Example 12]  STAT 6 (Mus musculus, UniProt P52633)      100
5  NC(=O)c1cnc(Nc2ccc(N3CCOCC3)cc2)nc1NCc1ccccc1 [Example 3]  STAT 6 (Mus musculus, UniProt P52633)      100
6  NC(=O)c1cnc(NCCc2ccc(O)c(Cl)c2)nc1NCc1ccccc1 [Example 1]  STAT 6 (Mus musculus, UniProt P52633)      100

Reference source: patent US8012959B2
